Molecular target: acetylcholine receptor
Experiment: SPR, AchR immobilised on CM5 chip, peptide 10 uM
Readings of log10(Binding affinity (RU)) for the listed binders
Hey, these are logged values: log10 of Binding affinity (RU), RU being the unit before logging.

RTPARK [6mer-2-733]	1.46
RKDTHK [6mer-1-1031]	1.58
RRISIR [6mer-1-1061]	1.61
KPPIRK [6mer-2-624]	1.52

Problem: Name the recorded log10(Binding affinity (RU)) for RKCVKR [6mer-2-750] .
Solution: 1.46

Problem: Name the recorded log10(Binding affinity (RU)) for RKEDKR [6mer-1-950] .
Solution: 1.46
